Reference source for all entries: patent US12642271B2

Assignment: determine reported pest or weed control at 0.5 ppm for the given compounds.
test system: Alternaria solani; assay: Alternaria test (tomatoes)/preventive; format: in vivo; conditions: Alternaria solani, 72 h, Table 3b; 0.5 ppm; read-out: Efficacy in % found
Just the number please, in %, no unit attached.

pest or weed control at 0.5 ppm recorded for this compound, `Cn1nc(C(F)F)c(C(=O)N(Cc2c(C(F)(F)F)ccc(Cl)c2F)C2CC2)c1F` , is 43

Entry `Cn1nc(C(F)F)c(C(=O)N(Cc2cc(Cl)ccc2C(F)(F)F)C2CC2)c1F` , pest or weed control at 0.5 ppm reported as 63

Input `CC(C)c1ccccc1CN(C(=O)c1c(C(F)F)nn(C)c1F)C1CC1` . Output pest or weed control at 0.5 ppm: 59

Entry under test: `Cn1nc(C(F)F)c(C(=O)N(Cc2c(Cl)cccc2C(F)(F)F)C2CC2)c1F` . Its pest or weed control at 0.5 ppm was 71
